assay: Rat pharmacokinetics, single PO or IV dose; type: in vivo, male Sprague Dawley rats; conditions: male, Sprague Dawley, plasma, PO, all dose levels 50–200 mg/kg, read-out: mean AUCinf
measured.metric: AUC(0-inf)

Requested field: AUC(0-inf). Item: N#Cc1cc(NC(=O)[C@H]2c3ccccc3C(=O)N(CC(F)(F)F)[C@@H]2c2cn[nH]c2)ccc1F [SJ311]
34.1 to 65.8 µM·h

Now this one: N#Cc1cc(NC(=O)[C@H]2c3ccccc3C(=O)N(CC(F)(F)F)[C@@H]2c2cccnc2)ccc1F (racemic) [SJ733]
96.3 to 330 µM·h

###

assay: Microsomal stability, mouse; type: in vitro ADME; conditions: mouse microsomes, 0.8 µM
measured.metric: t1/2

What measured t1/2 goes with N#Cc1cc(NC(=O)[C@H]2c3ccccc3C(=O)N(CC(F)(F)F)[C@@H]2c2cn[nH]c2)ccc1F [(+)-SJ311] ?
> 4 h

Try N#Cc1cc(NC(=O)[C@@H]2c3ccccc3C(=O)N(CC(F)(F)F)[C@H]2c2cn[nH]c2)ccc1F [(−)-SJ311] next.
> 4 h

# repeat for N#Cc1cc(NC(=O)[C@@H]2c3ccccc3C(=O)N(CC(F)(F)F)[C@H]2c2cccnc2)ccc1F [(-)-SJ733]
0.8 ± 0.1 h

Follow-up entry: N#Cc1cc(NC(=O)[C@H]2c3ccccc3C(=O)N(CC(F)(F)F)[C@@H]2c2cccnc2)ccc1F [(+)-SJ733]
0.7 ± 0.1 h

###

test: Mouse plasma pharmacokinetics, single PO or IV dose; assay type: in vivo, female C57BL/6 mice; conditions: mouse plasma, single PO 10 mg/kg
measured.metric: Cmax
Please answer using the number first and the unit second.

Item N#Cc1cc(NC(=O)[C@H]2c3ccccc3C(=O)N(CC(F)(F)F)[C@@H]2c2cccnc2)ccc1F [(+)-SJ733] has what recorded Cmax?
1.38 µM

###

experiment: Rat pharmacokinetics, single PO or IV dose; format: in vivo, male Sprague Dawley rats; conditions: in vivo, po, 1.9 mg/kg
measured.metric: Cmax (nM)
Output spec: scalar in nM, unitless text.

Need Cmax, item N#Cc1cc(NC(=O)[C@H]2c3ccccc3C(=O)N(CC(F)(F)F)[C@@H]2c2cccnc2)ccc1F [(+)-SJ733]
900

###

Assay: Rat pharmacokinetics, single PO or IV dose
Format: in vivo, male Sprague Dawley rats
Conditions: male, Sprague Dawley, plasma, po, summary over the oral doses studied, read-out: Rat F (oral bioavailability)
Protocol: Studies were undertaken to determine the plasma pharmacokinetics of SJ733 and SJ311. […] Body weights were recorded on Day 1 prior to dose administration and on Day 4. […] SJ733, SJ311, and diazepam (IS) were detected using LC–MS/MS instrumentation. […] Plasma and urine samples from the high dose rat PK studies were analyzed by SRI. […]
measured.metric: bioavailability

What does the data say about its bioavailability? Entry: N#Cc1cc(NC(=O)[C@H]2c3ccccc3C(=O)N(CC(F)(F)F)[C@@H]2c2cccnc2)ccc1F (racemic)
60 to 100%

###

assay: Mouse plasma pharmacokinetics, single PO or IV dose; format: in vivo, female C57BL/6 mice; details: mouse plasma, single PO 50 mg/kg
measured.metric: Cmax

I have this compound here, N#Cc1cc(NC(=O)C2c3ccccc3C(=O)N(CC(F)(F)F)C2c2cccnc2)ccc1F (racemic) [(r)-SJ733] , and I need its recorded Cmax.
10.1 µM
